B1: IQUB (parent)
chain: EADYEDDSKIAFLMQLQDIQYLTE

# Variants of: B1
# assay.remarks: protein stability index of a GFP-peptide fusion (GPS, HEK-293T) (PSI 1-6); higher = more stable;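 note: lentivirally expressed fusions sorted by FACS into six bins by GFP to DsRed ratio, PSI derived from sequencing read proportions per bin multiplied by bin number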
# test.conditions: c terminus: a fixed tail appended
quantity: protein stability index

## Task Which value of protein stability index has been reported for EADYEDDSKIAFLMQLQNIQYLTE [D18N] in the records?
## Result 2.58

## Task So what does the record say about protein stability index for EADYEDDSKIAFLMQLQSIQYLTE [D18S] ?
## Result 2.24

## Task Look at this variant and give its reported protein stability index. EADYEDDSKIAFLMQLQDIFYLTE [Q20F]
## Result 1.54

## Task Recorded protein stability index of EADYEDVSKIAFLMQLQDIQYLTE [D7V] , please.
## Result 1.96

## Task I am curious: what protein stability index value has been reported for EADYEDDSKIAFLMQLQDIQFLTE [Y21F] ?
## Result 2.78

## Task What protein stability index value was documented for this variant, EADYEDSSKIAFLMQLQDIQYLTE [D7S] ?
## Result 2.47

## Task Endpoint output: protein stability index of EADYEWDSKIAFLMQLQDIQYLTE [D6W] . Value?
## Result 1.83

## Task Returns the measured protein stability index for the input variant. Input: EADYEDDSKIAFLMQLQDIQYLTQ [E24Q]
## Result 2.72

## Task Form field: reported protein stability index of EADYEDDSPIAFLMQLQDIQYLTE [K9P]
## Result 2.9

## Task Please report the recorded protein stability index for EADYEDDSKCAFLMQLQDIQYLTE [I10C] .
## Result 3.34

## Task Tell me the measured protein stability index of EADYEDDSKIAFLMQLQDIQYLRE [T23R] , please.
## Result 3.29

## Task Which protein stability index is reported for this variant? EADYEDDSKIAFLMQLQDIQYLTA [E24A]
## Result 2.91

## Task Reported protein stability index, variant EADYEDDSKIAYLMQLQDIQYLTE [F12Y] : ____
## Result 3.73

## Task Fill in the blank: the reported protein stability index of PADYEDDSKIAFLMQLQDIQYLTE [E1P] is ____.
## Result 2.6

## Task Endpoint output: protein stability index of EADYEDDRKIAFLMQLQDIQYLTE [S8R] . Value?
## Result 2.88

## Task protein stability index lookup needed for EADYEDDSKIAFLWQLQDIQYLTE [M14W] , thanks.
## Result 2.42

## Task protein stability index for EADYEDDSKIAFLMSLQDIQYLTE [Q15S] ?
## Result 2.46

## Task Which measured protein stability index value corresponds to EADYEDDQKIAFLMQLQDIQYLTE [S8Q] ?
## Result 3.32

## Task Form field: reported protein stability index of EADYEDDSKIAFLMQLQGIQYLTE [D18G]
## Result 2.92

## Task Report protein stability index for EADYEDDSKIAFLMQVQDIQYLTE [L16V] please.
## Result 3.71

## Task // protein stability index lookup, key: EADYEDDFKIAFLMQLQDIQYLTE [S8F]
## Result 1.89

## Task State the recorded protein stability index for this entry: WADYEDDSKIAFLMQLQDIQYLTE [E1W]
## Result 2.17
